- system: human TRPM5 ion channel (Homo sapiens, UniProt Q9NZQ8)
- Sequence (Q9NZQ8 whole entry): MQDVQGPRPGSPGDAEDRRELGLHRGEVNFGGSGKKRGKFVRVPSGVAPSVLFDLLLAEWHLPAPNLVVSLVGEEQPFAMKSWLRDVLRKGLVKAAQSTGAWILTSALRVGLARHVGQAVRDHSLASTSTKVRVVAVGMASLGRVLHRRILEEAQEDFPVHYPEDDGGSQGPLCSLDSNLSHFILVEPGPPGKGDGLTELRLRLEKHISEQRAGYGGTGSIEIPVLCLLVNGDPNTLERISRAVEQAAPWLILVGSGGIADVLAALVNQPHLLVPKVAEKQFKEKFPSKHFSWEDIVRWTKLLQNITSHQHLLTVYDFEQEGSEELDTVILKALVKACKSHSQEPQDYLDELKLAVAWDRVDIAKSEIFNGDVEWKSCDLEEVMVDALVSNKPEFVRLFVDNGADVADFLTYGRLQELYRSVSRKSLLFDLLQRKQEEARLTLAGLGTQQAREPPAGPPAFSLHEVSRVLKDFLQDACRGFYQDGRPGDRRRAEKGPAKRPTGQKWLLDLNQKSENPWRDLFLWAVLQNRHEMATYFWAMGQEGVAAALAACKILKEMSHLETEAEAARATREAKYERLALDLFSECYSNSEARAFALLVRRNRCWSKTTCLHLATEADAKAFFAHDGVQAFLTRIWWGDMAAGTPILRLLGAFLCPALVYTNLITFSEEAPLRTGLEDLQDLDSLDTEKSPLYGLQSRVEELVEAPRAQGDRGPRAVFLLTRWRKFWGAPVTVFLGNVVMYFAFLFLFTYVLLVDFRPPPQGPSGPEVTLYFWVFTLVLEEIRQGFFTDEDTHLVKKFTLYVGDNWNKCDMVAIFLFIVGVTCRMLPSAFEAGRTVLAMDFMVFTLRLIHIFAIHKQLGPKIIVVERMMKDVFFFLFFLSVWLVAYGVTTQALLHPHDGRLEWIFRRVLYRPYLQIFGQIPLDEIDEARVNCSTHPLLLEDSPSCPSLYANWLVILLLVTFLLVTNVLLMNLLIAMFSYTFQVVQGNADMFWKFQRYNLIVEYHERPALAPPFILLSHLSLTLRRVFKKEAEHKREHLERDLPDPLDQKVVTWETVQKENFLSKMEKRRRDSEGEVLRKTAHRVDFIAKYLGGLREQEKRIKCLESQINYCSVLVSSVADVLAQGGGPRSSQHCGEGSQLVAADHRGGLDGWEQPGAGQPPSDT
- protocol-text: FLIPR-based assay for membrane potential and calcium mobilization (TRPM5 inhibiting activity)
- experimental-setup: live cells, 30° C., read-out: hTrpM5 IC50
test-readout: pIC50
// pIC50: -log10(molar conc.)

1. COc1ccc(/C=N/NC(=O)CCn2cc(C)c3c(CO)cccc32)cc1OC    6.59
2. COc1cccc(CCC(=O)N/N=C/c2cc(C)c3ncccc3c2)n1    5.70
3. Cc1cn(CCC(=O)NN=Cc2ccc3nnccc3c2)c2ccccc12    6.37

Turning to the following compound.
Lab entry: human TRPM5 ion channel (Homo sapiens, UniProt Q9NZQ8) assay, compound "Cc1cn(CCC(=O)N/N=C/c2ccc3nccnc3c2)c2ccccc12" , pIC50 = 5.66

Cited source: patent US20110033393A1
